Entries and their pIC50 values follow.
Molecular target: OBP-native-iso2 (Sus scrofa, UniProt P81245)
Construct: Proteins were gently extracted from RM of pre-pubertal males of S. scrofa; from tissue; host or cells: RM (respiratory mucosa) extract of pre-pubertal male pigs, purified by two rounds of anion-exchange HPLC
Sequence (P81245 whole entry): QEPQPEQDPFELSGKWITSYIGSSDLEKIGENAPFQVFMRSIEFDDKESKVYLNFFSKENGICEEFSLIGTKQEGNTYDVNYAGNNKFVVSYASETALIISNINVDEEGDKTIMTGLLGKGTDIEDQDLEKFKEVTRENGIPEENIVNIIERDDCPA
Test: Competitive fluorescence binding assay with AMA as probe
Settings: OBP-native-iso2 2.5 μM saturated with 3.75 μM AMA; competitor 0 to 6 μM; read-out: IC50
pIC50: −log10 of the molar value.
endpoint name: pIC50

compound="C[C@]12CCC(=O)C[C@@H]1CC[C@@H]1[C@@H]2CC[C@]2(C)C=CC[C@@H]12 [Androstenone, 3-keto-5α, 16-androstene]" value_relation_sign=< val=5.22
compound="CCCCCCCCCCCCCCCC(=O)O [Palmitic acid, hexadecanoic acid]" value_relation_sign== val=5.82
compound="C[C@]12CC[C@@H](O)C[C@@H]1CC[C@@H]1[C@@H]2CC[C@]2(C)C=CC[C@@H]12 [Androstenol, 3α-hydroxy-5α-androst-16-ene]" value_relation_sign=< val=5.22
compound="CCCCCCCCCCCCCC(=O)O [Myristic acid, tetradecanoic acid]" value_relation_sign== val=5.99

----------
Biological target: OBP-native-iso1 (Sus scrofa)
Construct: Proteins were gently extracted from RM of pre-pubertal males of S. scrofa; from tissue; host or cells: RM (respiratory mucosa) extract of pre-pubertal male pigs, purified by two rounds of anion-exchange HPLC
Experiment: Competitive fluorescence binding assay with AMA as probe
Conditions: OBP-native-iso1; calculated dissociation constant from AMA competition
endpoint name: Kd (nM)

chemical_structure=CCCCCCCCCCCCCC(=O)O result_units=nM val=50
chemical_structure=CCCCCCCCCCCCCCCC(=O)O result_units=nM val=160

----------
Target: OBP-native-iso2 (Sus scrofa)
Construct: Proteins were gently extracted from RM of pre-pubertal males of S. scrofa; from tissue; host or cells: RM (respiratory mucosa) extract of pre-pubertal male pigs, purified by two rounds of anion-exchange HPLC
Test: Competitive fluorescence binding assay with AMA as probe
Details: OBP-native-iso2 2.5 μM saturated with 3.75 μM AMA; competitor 0 to 6 μM
pIC50: −log10 of the molar value.
endpoint name: pIC50

compound="C[C@]12CC[C@H]3[C@@H](CCC4=CC(=O)CC[C@@]43C)[C@@H]1CC[C@@H]2O [Testosterone, 17β-hydroxy-3-oxo-4-androstene, reference compound]" target="OBP-native-iso2 (Sus scrofa)" endpoint_name=pIC50 val="< 5.22"

----------
Target: OBP-native-iso4 (Sus scrofa, UniProt P81245)
Test: Competitive fluorescence binding assay with AMA as probe
Details: OBP-native-iso4; calculated dissociation constant from AMA competition
Description: Androstenone (3-keto-5α, 16-androstene), androstenol (3α-hydroxy-5α-androst-16-ene), testosterone (17β-hydroxy-3-oxo-4-androstene), palmitic acid (hexadecanoic acid), myristic acid (tetradecanoic acid), and AMA (1-aminoanthracene) were purchased from Sigma-Aldrich. UV-visible spectra were recorded on a Cary-100 double beam spectrometer (Varian) with a cell of 0.5 cm path length. […] The affinities of the five ligands were measured in a competitive binding assay with AMA as the fluorescent probe. […]
pKd: −log10 of the molar value.
Entries and their pKd values follow.
endpoint name: pKd

compound=C[C@]12CCC(=O)C[C@@H]1CC[C@@H]1[C@@H]2CC[C@]2(C)C=CC[C@@H]12 endpoint_name=pKd val=6.66
compound="C[C@]12CC[C@@H](O)C[C@@H]1CC[C@@H]1[C@@H]2CC[C@]2(C)C=CC[C@@H]12 [Androstenol, 3α-hydroxy-5α-androst-16-ene]" endpoint_name=pKd val=6.80
